Ki for assorted binders
system_under_test: Sushi domains (SD1/2) protein of the GABAB1a (GB1a) subunit, recombinant
Sequence (Q9Z0U4 29-158): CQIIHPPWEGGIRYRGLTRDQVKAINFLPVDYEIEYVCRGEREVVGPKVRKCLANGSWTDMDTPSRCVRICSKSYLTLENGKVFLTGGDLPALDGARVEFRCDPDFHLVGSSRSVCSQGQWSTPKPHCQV
protocol: FP competition
Non-standard residues stand in square brackets, D forms with d. NMeE = CN[C@@H](CCC(=O)O)C(=O)O
// note: answer is a bare numeric in nM

Solved cases below.
INSERT INTO assay_data (binder, obs_value) VALUES
  ('Ac-PWAIVW-NH2', 706),
  ('Ac-ETEFIAWGPTGD[NMeE]D-NH2 (SMILES CC[C@H](C)[C@H](NC(=O)[C@H](Cc1ccccc1)NC(=O)[C@H](CCC(=O)O)NC(=O)[C@@H](NC(=O)[C@H](CCC(=O)O)NC(C)=O)[C@@H](C)O)C(=O)N[C@@H](C)C(=O)N[C@@H](Cc1c[nH]c2ccccc12)C(=O)NCC(=O)N1CCC[C@H]1C(=O)N[C@H](C(=O)NCC(=O)N[C@@H](CC(=O)O)C(=O)N(C)[C@@H](CCC(=O)O)C(=O)N[C@@H](CC(=O)O)C(N)=O)[C@@H](C)O) […(N-Me-E)D]', 31),
  ('Ac-RRRRRRRREAAAKEDDDWIDWGPTSDDD-NH2 [R8-RL-17 (…)]', 105);

Read the next record carefully.
Recorded Ki for Ac-EDDDWIDWGPTSDDDEAAAKRRRRRRRR-NH2 [17-RL-R8 (…)] , please?
139
